pIC50: −log10 of the molar value.
Assay read-out pIC50 on Cytochrome P450 2C9 (Homo sapiens, UniProt P11712); records merged from the literature.

Solved cases (4 shown):
{"compound": "C[C@]1(c2cc(NC(=O)c3ccc(C#N)cn3)ccc2F)N=C(N)O[C@H]2[C@@H]1OCC2(F)F", "measured target": "Cytochrome P450 2C9 (Homo sapiens, UniProt P11712)", "measurement type": "pIC50", "recorded measurement": "≤ 4.70"}
{"compound": "C[C@@H](c1ccccc1-c1ccc(F)cc1)n1cncc1C(=O)N1CCC(N2CCC(F)C(O)C2)CC1 (some centres unmarked)", "measured target": "Cytochrome P450 2C9 (Homo sapiens, UniProt P11712)", "measurement type": "pIC50", "recorded measurement": "< 5.00"}
{"compound": "COc1ccc(Nc2ccc(C(=O)c3c[nH]c4ncnc(NC(C)C)c34)c(F)n2)cn1", "measured target": "Cytochrome P450 2C9 (Homo sapiens, UniProt P11712)", "measurement type": "pIC50", "recorded measurement": "< 5.00"}
{"compound": "C[C@]1(c2cc(NC(=O)c3ccc(C#N)cn3)ccc2F)N=C(N)O[C@H](CF)[C@@H]1OCC(F)(F)F", "measured target": "Cytochrome P450 2C9 (Homo sapiens, UniProt P11712)", "measurement type": "pIC50", "recorded measurement": "≤ 4.70"}

Inquiry: Please report the recorded pIC50 for C[C@@H]1SC(N)=N[C@](C)(c2cc(NC(=O)c3ccc(C#N)cn3)ccc2F)[C@@H]1F .
Reply text: ≤ 4.70

Inquiry: Please report the recorded pIC50 for CCc1ccc(Nc2ccc(C(=O)c3c[nH]c4ncnc(NCC(C)(C)O)c34)c(F)n2)cn1 .
Reply text: < 5.00
